- Test system: blackgrass
- experiment: Test B pre/postemergence blackgrass
- Format: in vivo, Alopecurus myosuroides
- measurement_parameters: Preemergence, Rate 62 g/ha; scale 0 to 10 (0 no effect, 10 complete control)
reported_metric: Plant response rating, Blackgrass
Enter the number alone.

Bench note, blackgrass: entry Cc1nnsc1Cn1c(=O)on(C(=O)N(c2ccc(F)cc2)C(C)C)c1=O , its Plant response rating, Blackgrass = 0

Summary line: CC(C)N(C(=O)n1oc(=O)n(N2C(C)CCCC2C)c1=O)c1ccc(F)cc1 (stereo not shown) , blackgrass, reported Plant response rating, Blackgrass = 0

Entry CCC(CC)n1c(=O)on(C(=O)N(c2ccccc2)C(C)C)c1=O ; assay system blackgrass; Plant response rating, Blackgrass recorded at 3

blackgrass Plant response rating, Blackgrass of Cc1nnsc1Cn1c(=O)on(C(=O)N(c2ccccc2)C(C)C)c1=O is 0
